Assay: Water solubility determination of vortioxetine acetate form III (Example 9)
Assay type: physicochemical
Conditions: thermodynamic from solid, 25° C., 100.34 mg dissolved in 300 μL, read-out: Solubility of the acetate salt in water
Property Measured: solubility (mg/mL)

{"Compound": "CC(=O)O.Cc1ccc(Sc2ccccc2N2CCNCC2)c(C)c1 [vortioxetine acetate form III]", "Property Measured": "solubility", "Reported Measurement": 334}
